Target: hNET transporter (Homo sapiens, UniProt P23975)
Construct: expressed in transfected cells; membranes prepared
Sequence (P23975 whole entry): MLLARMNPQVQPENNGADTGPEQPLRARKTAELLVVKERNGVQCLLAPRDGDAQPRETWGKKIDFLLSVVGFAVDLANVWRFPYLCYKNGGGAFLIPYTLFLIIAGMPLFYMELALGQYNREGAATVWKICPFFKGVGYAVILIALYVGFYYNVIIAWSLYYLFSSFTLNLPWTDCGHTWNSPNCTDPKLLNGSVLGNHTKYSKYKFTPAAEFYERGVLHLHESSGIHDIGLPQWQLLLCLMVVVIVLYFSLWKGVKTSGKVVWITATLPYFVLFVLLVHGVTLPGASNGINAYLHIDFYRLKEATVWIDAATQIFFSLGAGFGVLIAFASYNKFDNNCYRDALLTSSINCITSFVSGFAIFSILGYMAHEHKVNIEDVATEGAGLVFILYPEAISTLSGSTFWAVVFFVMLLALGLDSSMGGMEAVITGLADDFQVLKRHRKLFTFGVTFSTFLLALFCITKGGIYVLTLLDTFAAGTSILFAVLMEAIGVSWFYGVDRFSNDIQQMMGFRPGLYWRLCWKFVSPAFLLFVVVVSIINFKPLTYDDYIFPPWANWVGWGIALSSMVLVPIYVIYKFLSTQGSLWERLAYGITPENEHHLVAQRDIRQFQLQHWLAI
Test: Human norepinephrine transporter (hNET) scintillation proximity assay, competition with [3H]-Nisoxetine
Type: binding
Conditions: Table 1; read-out: pIC50 NET (converted)
MEASURED PARAMETER: IC50

>  <COMPOUND>
CC(C)(C)CC[C@]1(C(=O)c2cc(F)c(N)c(Cl)c2)CCNC1

>  <IC50>
0.977 nM

$$$$

I'm curious: which IC50 was measured for O=C(c1ccc(Cl)c(Cl)c1)C1(CC2CCCO2)CCNCC1 (stereo not drawn) tested on hNET transporter (Homo sapiens, UniProt P23975)?
47.9 nM

I'm curious: which IC50 was measured for CCCC1(C(=O)c2ccc(Cl)c(Oc3ccccc3)c2)CCNCC1 tested on hNET transporter (Homo sapiens, UniProt P23975)?
11.5 nM
